Value source: patent US4425356A

test system: Treponema hyodysenteriae; test: in vitro antibacterial activity (MIC, agar dilution method), Test Examples 1-3; assay type: cell-based; conditions: Brachyspira hyodysenteriae, 48 h, strain 78/A; 37° C., 2 days, anaerobic; read-out: Minimum Inhibitory Concentration
Output class 1 for records whose MIC is lower than 3 µg/mL, class 0 for records at or above 3 µg/mL.

Observe how each entry below is paired with its result.
[
  {
    "Compound": "CO[C@H]1C[C@H](O[C@H]2[C@H](C)[C@@H](O[C@@H]3O[C@H](C)C[C@H](N(C)C)[C@H]3O)[C@@H](C)C[C@@]3(CO3)C(=O)[C@H](C)[C@@H](O)[C@@H](C)[C@@H](C)OC(=O)[C@@H]2C)O[C@@H](C)[C@@H]1O [Oleandomycin, reference compound]",
    "Category Label": "class 0"
  },
  {
    "Compound": "CO[C@@H]1[C@@H](O[C@@H]2O[C@H](C)[C@@H](O[C@H]3C[C@@](C)(O)[C@@H](OC(=O)CC(C)C)[C@H](C)O3)[C@H](N(C)C)[C@H]2O)[C@@H](CC=O)C[C@@H](C)[C@@H](O)/C=C/C=C/C[C@@H](C)OC(=O)C[C@H]1O [Leucomycin, reference compound]",
    "Category Label": "class 0"
  },
  {
    "Compound": "CCC(=O)OC1C=CC(C)=CCC(O)C=CC(C)=CC(NC(=O)C(C)=O)C2(C)C(=O)OC(C1)C(C)C2=O (stereo not shown) [Lankacidin C 14-propionate, lankacidin C 14-propionate]",
    "Category Label": "class 1"
  },
  {
    "Compound": "CC(=O)OC1C=CC(C)=CCC(O)C=CC(C)=CC(NC(=O)C(C)=O)C2(C)C(=O)OC(C1)C(C)C2=O (stereo not shown)",
    "Category Label": "class 0"
  },
  {
    "Compound": "CC(=O)C(=O)NC1C=C(C)C=CC(OC(=O)c2ccccc2)CC=C(C)C=CC(O)CC2OC(=O)C1(C)C(=O)C2C (stereo not shown) [Lankacidin C 8-benzoate, lankacidin C 8-benzoate]",
    "Category Label": "class 1"
  },
  {
    "Compound": "CCC(=O)OC1C=CC(C)=CC(NC(=O)C(C)=O)C2(C)C(=O)OC(CC(OC(=O)CC)C=CC(C)=CC1)C(C)C2=O (stereo not shown) [Lankacidin C 8,14-dipropionate, lankacidin C 8,14-dipropionate]",
    "Category Label": "class 1"
  },
  {
    "Compound": "CC(=O)OC1C=CC(C)=CCC(O)C=CC(C)=CC(NC(=O)C(C)O)C2(C)C(=O)OC(C1)C(C)C2=O (stereo not shown)",
    "Category Label": "class 0"
  },
  {
    "Compound": "CCC(=O)OC1C=CC(C)=CC(NC(=O)C(C)=O)C2(C)C(=O)OC(CC(OC(C)=O)C=CC(C)=CC1)C(C)C2=O (stereo not shown) [Lankacidin A 8-propionate, lankacidin A 8-propionate]",
    "Category Label": "class 0"
  }
]

Input: is_below(MIC, 3 µg/mL) for CCCC(=O)OC1C=CC(C)=CC(NC(=O)C(C)=O)C2(C)C(=O)OC(CC(OC(=O)CCC)C=CC(C)=CC1)C(C)C2=O (stereo not shown) [Lankacidin C 8,14-dibutyrate] ?
Output: class 1

Input: Say whether its MIC is strictly beneath 3 µg/mL. Entry: CCCCC(=O)OC1C=CC(C)=CCC(O)C=CC(C)=CC(NC(=O)C(C)=O)C2(C)C(=O)OC(C1)C(C)C2=O (stereo not shown) [Lankacidin C 14-valerate]
Output: class 0
